The reported measurements were obtained from ChEMBL document CHEMBL3045944.

Test system: Bacillus subtilis
Assay: Antibacterial activity against Bacillus subtilis NCIM 2063 after 24 hr by broth dilution method
Format: functional
Details: NCIM 2063, 24 h
READOUT TYPE: MIC (µg/mL)

- O=[N+]([O-])c1ccc(Nc2nc(Nc3ccc([N+](=O)[O-])cc3)nc(Nc3nc(-c4ccc([N+](=O)[O-])cc4)cs3)n2)cc1: 6.25
- O=[N+]([O-])c1ccc(-c2csc(Nc3nc(Nc4ccc(Br)cc4)nc(Nc4ccc(Br)cc4)n3)n2)cc1: 100

[P] Clc1nc(Nc2ccc(Br)cc2)nc(Nc2ccc(Br)cc2)n1
[Q] Clc1ccc(Nc2nc(Cl)nc(Nc3ccc(Cl)cc3)n2)cc1
Input line: Endpoint returns the identifier whose MIC is numerically larger, either P or Q . Provide the label of your selected option as the answer.
Output line: P
(P: 100 µg/mL, Q: 50 µg/mL)
